tgt: human Src enzyme (Homo sapiens, UniProt P12931)
Construct: purchased Carna Biosciences, Inc. 08-173
Sequence (P12931 whole entry): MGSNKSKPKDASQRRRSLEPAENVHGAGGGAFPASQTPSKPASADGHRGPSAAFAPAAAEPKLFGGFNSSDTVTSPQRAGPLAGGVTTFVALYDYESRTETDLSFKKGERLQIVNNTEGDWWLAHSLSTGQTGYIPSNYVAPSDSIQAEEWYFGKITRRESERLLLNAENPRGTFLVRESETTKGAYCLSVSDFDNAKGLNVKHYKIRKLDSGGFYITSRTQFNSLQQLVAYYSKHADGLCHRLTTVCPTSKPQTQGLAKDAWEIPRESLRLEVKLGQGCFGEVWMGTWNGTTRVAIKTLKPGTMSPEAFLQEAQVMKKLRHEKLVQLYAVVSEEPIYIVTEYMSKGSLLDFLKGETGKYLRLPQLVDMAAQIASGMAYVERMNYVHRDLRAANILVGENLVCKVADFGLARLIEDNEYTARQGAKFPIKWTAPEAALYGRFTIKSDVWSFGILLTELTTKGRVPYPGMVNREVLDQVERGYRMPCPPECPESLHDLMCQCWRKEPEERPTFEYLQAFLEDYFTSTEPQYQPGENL
measurementDescription: Src enzyme inhibitory activity (time-resolved fluorometry, biotinylated peptide phosphorylation)
Format: biochemical
conditionContext: biotinylated peptide phosphorylation, read-out: SRC_IC50
Description: 2. Src Enzyme Inhibitory Activity Src inhibitory activity was determined based on activity of inhibiting phosphorylation reaction of a biotinylated peptide (EGPWLEEEEEAYGWMDF) using a human Src enzyme (manufactured by Carna Biosciences, Inc., cat 08-173). The phosphorylated biotinylated peptide was detected by time-resolved fluorometry using an anti-phosphorylated tyrosine antibody conjugated to europium cryptate, and streptavidin conjugated to XL665, an allophycocyanin derivative. […]
pIC50: −log10 of the molar value.
recordedEndpoint: pIC50

Examples with their reported pIC50 follow.
compound	tgt	pIC50
Cc1cc(Oc2ccccc2F)ncc1-n1ncc(C(=O)c2cc3cc(OC(F)F)c(NS(=O)(=O)C4CC4)cc3[nH]2)c1N [Example 4-24-007]	human Src enzyme (Homo sapiens, UniProt P12931)	6.64
Cc1cc(Oc2ccccc2F)ccc1-n1ncc(C(=O)c2cc3cc(F)c(NS(=O)(=O)NC4CCOCC4)cc3[nH]2)c1N [Example 4-5-003]	human Src enzyme (Homo sapiens, UniProt P12931)	7.54

(a) Cc1cc(Oc2ccccc2F)ccc1-n1ncc(C(=O)c2cc3cc(F)c(NS(=O)(=O)c4cccc(F)c4)cc3[nH]2)c1N [Example 5-1-552]
(b) Cc1cc(Oc2ccccc2F)cc(F)c1-n1ncc(C(=O)c2cc3cc(Cl)c(NS(C)(=O)=O)cc3[nH]2)c1N [Example 4-2-079]
Which of the two items, a and b , has the greater recorded pIC50? Your answer should be the label of the entry you select. b

(I) Cc1cc(Oc2c(F)cccc2F)ncc1-n1ncc(C(=O)c2cc3cc(OC(F)F)c(C4CCNCC4)cc3[nH]2)c1N [Example 4-4-001]
(II) Cc1cc(Oc2ccccc2F)ccc1-n1ncc(C(=O)c2cc3cc(F)c(N4C(=O)N[C@@H](C)C4=O)cc3[nH]2)c1N [Example 5-1-411]
Which of the two items, I and II , has the greater recorded pIC50? Your answer should be the label of the entry you select. I
(I: 7.68, II: 7.43)

* * *

tgt: human Yes1 enzyme (Homo sapiens, UniProt P07947)
Construct: made in house
Sequence (P07947 whole entry): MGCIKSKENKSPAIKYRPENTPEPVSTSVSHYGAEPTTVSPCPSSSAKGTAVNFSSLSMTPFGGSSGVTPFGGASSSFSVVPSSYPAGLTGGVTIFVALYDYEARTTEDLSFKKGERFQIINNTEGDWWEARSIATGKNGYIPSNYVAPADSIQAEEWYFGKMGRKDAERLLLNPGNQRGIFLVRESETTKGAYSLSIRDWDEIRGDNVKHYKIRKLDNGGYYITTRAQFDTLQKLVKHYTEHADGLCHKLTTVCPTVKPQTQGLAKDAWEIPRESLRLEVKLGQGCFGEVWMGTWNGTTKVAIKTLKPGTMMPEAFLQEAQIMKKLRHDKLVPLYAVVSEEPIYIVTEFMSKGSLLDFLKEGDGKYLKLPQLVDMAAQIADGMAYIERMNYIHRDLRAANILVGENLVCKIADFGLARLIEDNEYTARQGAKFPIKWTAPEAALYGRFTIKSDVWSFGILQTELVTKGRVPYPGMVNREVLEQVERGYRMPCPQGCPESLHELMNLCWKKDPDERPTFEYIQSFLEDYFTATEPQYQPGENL
measurementDescription: Yes1 enzyme inhibitory activity (time-resolved fluorometry, biotinylated peptide phosphorylation)
Assay type: biochemical
conditionContext: read-out: YES_IC50
Procedure: 1. Yes1 Enzyme Inhibitory Activity Yes1 inhibitory activity was determined based on activity of inhibiting phosphorylation reaction of a biotinylated peptide (EGPWLEEEEEAYGWMDF) using a human Yes1 enzyme prepared using a baculovirus expression system. The phosphorylated biotinylated peptide was detected by time-resolved fluorometry using an anti-phosphorylated tyrosine antibody conjugated to europium cryptate, and streptavidin conjugated to XL665, an allophycocyanin derivative. […]
recordedEndpoint: IC50 (nM)

1) COc1cc2cc(C(=O)c3cnn(-c4ccc(Oc5ccccc5F)cc4C)c3N)[nH]c2cc1NS(=O)(=O)CC(=O)N1CCCC1 0.39
2) Cc1cc2cc(C(=O)c3cnn(-c4cnc(Oc5c(F)cccc5F)cc4C)c3N)[nH]c2cc1NS(=O)(=O)CC(=O)NC(C)C 1.5

(A) Cc1cc(Oc2c(F)cccc2F)ncc1-n1ncc(C(=O)c2cc3cc(OC4CCN(C(C)C)CC4)c(N4CCC(N5CCOCC5)CC4)cc3[nH]2)c1N
(B) Cc1cc2cc(C(=O)c3cnn(-c4ccc(Oc5ccccc5F)cc4C)c3N)[nH]c2cc1C1CCN(S(C)(=O)=O)CC1
(C) Cc1cc(Oc2ccccc2F)ccc1-n1ncc(C(=O)c2cc3cc(OC(F)F)c(N)cc3[nH]2)c1N
(D) Cc1cc2cc(C(=O)c3cnn(-c4cc(C)c(Oc5ccccc5F)cc4F)c3N)[nH]c2cc1NS(C)(=O)=O
Ascending by IC50, please: list the compounds accordingly. Use the labels to give the requested order. A, C, B, D
